Data provenance is patent US20230257396A1.

# Tgt: kinases (Homo sapiens)
# Construct: purchased Eurofins/DiscoveRx; host or cells: E. coli BL21-derived host (T7 phage display) for most kinases; HEK-293 for the rest
# Assay details: KINOMEscan kinase binding assay (Eurofins/DiscoveRx), % Ctrl
# Run parameters: target ABL2; 1 μM

[
  {
    "Molecule": "Cc1nn(C)c2c1-c1ccc3c(c1)/C(=C/c1[nH]ccc1C(=O)N(C)CCCO2)C(=O)N3 [Ex. 150]",
    "Tgt": "kinases (Homo sapiens)",
    "% Ctrl, ABL2 (% Ctrl)": 95
  },
  {
    "Molecule": "Cc1cc2c([nH]1)/C=C1\\C(=O)Nc3cc(Cl)c(cc31)OCCO[C@@H](C(=O)N1CCN(C)CC1)CN(C)C2=O [Ex. 138]",
    "Tgt": "kinases (Homo sapiens)",
    "% Ctrl, ABL2 (% Ctrl)": 98
  },
  {
    "Molecule": "Cc1cc2c([nH]1)/C=C1\\C(=O)Nc3cnc(cc31)-c1cn[nH]c1CNCCN(C)C2=O [Ex. 55]",
    "Tgt": "kinases (Homo sapiens)",
    "% Ctrl, ABL2 (% Ctrl)": 58
  }
]

----------
# Tgt: kinases (Homo sapiens, UniProt P00533, T790M)
# Construct: purchased Eurofins/DiscoveRx; host or cells: E. coli BL21-derived host (T7 phage display) for most kinases; HEK-293 for the rest
# Assay details: KINOMEscan kinase binding assay (Eurofins/DiscoveRx), % Ctrl
# Run parameters: 1 μM; EGFR(T790M)

[
  {
    "Compound": "Cc1cc2c([nH]1)/C=C1\\C(=O)Nc3ccc(cc31)-c1c(C)n[nH]c1CNCCN(C)C2=O [Ex. 127]",
    "% Ctrl, EGFR(T790M)": "9.2 % Ctrl"
  },
  {
    "Compound": "Cc1cc2c([nH]1)/C=C1\\C(=O)Nc3ccc(cc31)-c1ccnn1CCOCCN(C)C2=O [Ex. 41]",
    "% Ctrl, EGFR(T790M)": "36 % Ctrl"
  },
  {
    "Compound": "Cc1cc2c([nH]1)/C=C1\\C(=O)Nc3ccc(cc31)-c1cnn(C)c1CNCCN(C)C2=O [Ex. 125]",
    "% Ctrl, EGFR(T790M)": "11 % Ctrl"
  },
  {
    "Compound": "Cc1cc2c([nH]1)/C=C1\\C(=O)Nc3ccc(cc31)-c1ccnn1CCOCCNC2=O [Ex.39]",
    "% Ctrl, EGFR(T790M)": "99 % Ctrl"
  },
  {
    "Compound": "Cc1cc2c([nH]1)/C=C1\\C(=O)Nc3ccc(cc31)OCCOCCN(C)C2=O [Ex.91]",
    "% Ctrl, EGFR(T790M)": "82 % Ctrl"
  },
  {
    "Compound": "Cc1cc2c([nH]1)/C=C1\\C(=O)Nc3cnc(nc31)N(C)CCCOCCN(C)C2=O [Ex.71]",
    "% Ctrl, EGFR(T790M)": "100 % Ctrl"
  },
  {
    "Compound": "Cc1cc2c([nH]1)/C=C1\\C(=O)Nc3ccc(cc31)-c1c(noc1C)COCCN(C)C2=O [Ex. 128]",
    "% Ctrl, EGFR(T790M)": "75 % Ctrl"
  },
  {
    "Compound": "Cc1cc2c([nH]1)/C=C1\\C(=O)Nc3ccc(nc31)-c1ccccc1OCCCNC2=O [Ex.22]",
    "% Ctrl, EGFR(T790M)": "57 % Ctrl"
  },
  {
    "Compound": "Cc1cc2c([nH]1)/C=C1\\C(=O)Nc3cc(Cl)c(cc31)OCCO[C@@H](C(=O)N[C@@H]1CCNC1)CN(C)C2=O [Ex. 136]",
    "% Ctrl, EGFR(T790M)": "96 % Ctrl"
  }
]
